Each entry below carries its recorded composite z-score.
# Test system: Plasmodium falciparum Sir2 (PF13_0152, Sir2A)
# assay_text: pfSir2 binders on small-molecule microarrays, primary screen, biochemical, small-molecule microarray, 635 nm fluorescence (AID 1098);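 also: score merges spot fluorescence intensity with its signal-to-noise ratio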
# applied_conditions: small-molecule microarray binding, fluorescence 635 nm; higher = more signal
endpoint_label: composite z-score

CO[C@@H]1COC(=O)[C@H](CCSC)NC(=O)CC=C[C@@H](C)COC(=O)CCC[C@H]1C	0.919
C#CCCCON=C1C[C@@H](O)[C@@H](O)[C@@H]2[C@@H]3C(=O)N(c4ccc(F)cc4F)C(=O)[C@@H]3CC[C@H]12	0.87
CCO[C@H](c1cc(OC)cc([N+](=O)[O-])c1OC)[C@H](C)C=CCC(=O)OC	0.54
Cc1ccc(S(=O)(=O)N[C@H]2COC(=O)CC=C[C@H](C)[C@@H](NS(=O)(=O)c3ccc(C)cc3)COC(=O)CC=C[C@@H]2C)cc1	-0.0784
